experiment: Plasma stability assay, mouse plasma; format: in vitro ADME; conditions: CD1, mouse, plasma; 2 hours at 37°C, triplicates; read-out: Plasma stability (% remaining) Mouse
Non-standard residues stand in square brackets, D forms with d. Residues, ends and D or L forms follow the SMILES beside them. dPhe(4-Cl) = N[C@H](Cc1ccc(Cl)cc1)C(=O)O; dOrn = NCCC[C@@H](N)C(=O)O
Quantity name: remaining at 2 h, 1 uM
# output: numeric value plus its unit

Use these answered entries as a reference point.
{"Compound": "CC(C)C[C@@H]1NC(=O)[C@H](C)NC(=O)[C@@H](CCCN)NC(=O)[C@H](CC(N)=O)NC(=O)[C@H](C(C)C)NC(=O)[C@@H](CC(C)C)NC1=O [Compound 3c] (cyclo(AL[dL]VN[dOrn]))", "Meas value": "92%"}
{"Compound": "CC(C)C[C@@H]1NC(=O)[C@@H](Cc2ccc(Cl)cc2)NC(=O)[C@@H](CCCN)NC(=O)[C@H](CC(N)=O)NC(=O)[C@H](C(C)C)NC(=O)[C@@H](CC(C)C)NC1=O [Compound 14c] (cyclo(L[dL]VN[dOrn][dPhe(4-Cl)]))", "Meas value": "70%"}
{"Compound": "CC(C)C[C@@H]1NC(=O)[C@@H](CC(C)C)NC(=O)[C@@H](CCCN)NC(=O)[C@H](CC(N)=O)NC(=O)[C@H](C(C)C)NC(=O)[C@H](Cc2c[nH]c3ccccc23)NC1=O [Compound 21c] (cyclo(LWVN[dOrn][dL]))", "Meas value": "98%"}
{"Compound": "CC(C)C[C@@H]1NC(=O)[C@H](Cc2c[nH]c3ccccc23)NC(=O)[C@@H](CCCN)NC(=O)[C@H](CC(N)=O)NC(=O)[C@H](C(C)C)NC(=O)[C@@H](Cc2ccc(Cl)cc2)NC1=O [Compound 16c] (cyclo(L[dPhe(4-Cl)]VN[dOrn]W))", "Meas value": "98%"}
{"Compound": "CC(C)C[C@@H]1NC(=O)[C@H](Cc2c[nH]c3ccccc23)NC(=O)[C@@H](CCCN)NC(=O)[C@H](CC(N)=O)NC(=O)[C@H](C)NC(=O)[C@@H](CC(C)C)NC1=O [Compound 5c] (cyclo(AN[dOrn]WL[dL]))", "Meas value": "96%"}

Query: remaining at 2 h, 1 uM; subject: CC(C)C[C@@H]1NC(=O)[C@H](Cc2c[nH]c3ccccc23)NC(=O)[C@@H](CCCN)NC(=O)[C@@H](CCCN)NC(=O)[C@H](C(C)C)NC(=O)[C@@H](CC(C)C)NC1=O [Compound 9c] (cyclo(L[dL]V[dOrn][dOrn]W))
100%
